# ASSAY DETAILS: Toxicity in po dosed mouse
# Format: organism-based
# SETTINGS: in vivo
LD50 reference

- COMPOUND: "NCCCCc1ccc(N2CCCCC2)c(Cl)c1.O=C(O)CCC(=O)O"
  RESULT OPERATOR: "="
  LD50 (mg/kg): 1600
- COMPOUND: "NCCc1ccc(N2CCCCC2)cc1.O=C(O)O"
  RESULT OPERATOR: "="
  LD50 (mg/kg): 800
- COMPOUND: "Cl.NCCc1ccc(N2CCCCC2)cc1"
  RESULT OPERATOR: "="
  LD50 (mg/kg): 1200
- COMPOUND: "CC(C)c1ccc(N2CCCCC2)cc1.Cl"
  RESULT OPERATOR: "="
  LD50 (mg/kg): 1200
- COMPOUND: "CC(CNC(=O)C(F)(F)F)c1ccc(N2CCCCC2)cc1 (centres undefined)"
  RESULT OPERATOR: "="
  LD50 (mg/kg): 600
- COMPOUND: "O=C(NCCc1ccc(N2CCCCC2)cc1)C(F)(F)F"
  RESULT OPERATOR: "="
  LD50 (mg/kg): 1600
- COMPOUND: "CC(CN)c1cccc(N2CCCCC2)c1 (centres undefined)"
  RESULT OPERATOR: "="
  LD50 (mg/kg): 600
- COMPOUND: "Cl.[2H]C([2H])(N)C(C)c1ccc(N2CCCCC2)cc1 (centres undefined)"
  RESULT OPERATOR: "="
  LD50 (mg/kg): 600
- COMPOUND: "CC(CO)c1ccc(N2CCCCC2)cc1 (centres undefined)"
  RESULT OPERATOR: "="
  LD50 (mg/kg): 1600
- COMPOUND: "NCCCCc1ccc(N2CCCCC2)cc1.O=C(O)O"
  RESULT OPERATOR: "="
  LD50 (mg/kg): 600
- COMPOUND: "CC(CN)c1ccc(N2CCCCC2)cc1.Cl (centres undefined)"
  RESULT OPERATOR: "="
  LD50 (mg/kg): 600
- COMPOUND: "NCC(C(=O)O)c1ccc(N2CCCCC2)cc1 (centres undefined)"
  RESULT OPERATOR: ">"
  LD50 (mg/kg): 1600
- COMPOUND: "c1cc(N2CCCCC2)ccc1CCN1CCCCC1"
  RESULT OPERATOR: "="
  LD50 (mg/kg): 400
- COMPOUND: "O=C(O)Cc1ccc(N2CCCCC2)cc1"
  RESULT OPERATOR: "="
  LD50 (mg/kg): 800
- COMPOUND: "CC(N)Cc1ccc(N2CCCCC2)cc1.O=C(O)CCC(=O)O (centres undefined)"
  RESULT OPERATOR: "="
  LD50 (mg/kg): 600
- COMPOUND: "O=C(O)Cc1ccc(N2CCCCC2)c(Cl)c1"
  RESULT OPERATOR: "="
  LD50 (mg/kg): 800
- COMPOUND: "CN(CCc1ccc(N2CCCCC2)cc1)C(=O)C(F)(F)F.Cl"
  RESULT OPERATOR: "="
  LD50 (mg/kg): 1600
- COMPOUND: "Cl.NCCc1ccc(N2CCCCC2)c(Cl)c1"
  RESULT OPERATOR: "="
  LD50 (mg/kg): 800
- COMPOUND: "CC(C)(O)c1ccc(N2CCCCC2)cc1"
  RESULT OPERATOR: "="
  LD50 (mg/kg): 600
- COMPOUND: "NCCCCCCc1ccc(N2CCCCC2)cc1.O=C(O)CCC(=O)O"
  RESULT OPERATOR: "="
  LD50 (mg/kg): 1200
- COMPOUND: "Cl.NCCc1cccc(N2CCCCC2)c1"
  RESULT OPERATOR: "="
  LD50 (mg/kg): 600
- COMPOUND: "CNCCc1ccc(N2CCCCC2)cc1.O=C(O)CCC(=O)O"
  RESULT OPERATOR: "="
  LD50 (mg/kg): 600
- COMPOUND: "CC(CN(C)C)c1ccc(N2CCCCC2)cc1.Cl (centres undefined)"
  RESULT OPERATOR: "="
  LD50 (mg/kg): 600
- COMPOUND: "O=C(Cc1ccc(N2CCCCC2)cc1)NCCc1ccc(N2CCCCC2)cc1"
  RESULT OPERATOR: "="
  LD50 (mg/kg): 1600

Source: ChEMBL document CHEMBL3243965
